Each entry below carries its recorded Normal melting temperature.
details: Crystal; DTA
Entry rule: numbers only, all in °C.

[
  {
    "Compound": "c1ccc(-c2nc[nH]c2-c2ccccc2)cc1",
    "Unit Descriptor": "°C",
    "Normal melting temperature": 231.80
  },
  {
    "Compound": "c1ccc(-c2nc(-c3ccccc3)c(-c3ccccc3)[nH]2)cc1",
    "Unit Descriptor": "°C",
    "Normal melting temperature": 274.60
  },
  {
    "Compound": "CCn1cc[n+](C)c1.F[P-](F)(F)(F)(F)F [1-ethyl-3-methylimidazolium hexafluorophosphate]",
    "Unit Descriptor": "°C",
    "Normal melting temperature": 60.90
  }
]

Consider the additional compound presented here.
Record c1ccc(-c2ncc[nH]2)cc1 . Reported Normal melting temperature: 146.80

Reference source: the NIST ThermoML archive (doi:10.1016/j.tca.2007.02.005)
